Assay: Viability qHTS for spleen associated tyrosine kinase inhibitor (SYKi) drug resistant MV4-11 cells (AID 1963824); further: nearly all actives have a fitted effect of over 35% in size
Settings: SYKi-resistant MV4-11 viability, CellTiter-Glo, 72 h; series mostly up to 45 µM
Inconclusive results are not listed. The source made the active and inactive calls. The call rests on the fitted dose curve; in most records, active means well fitted cell-killing curve with a large enough effect; inconclusive means small, poorly fitted or top-dose-only effect, or effect the other way; inactive means no such curve, though single readings can be large or run the other way.
Your response should consist of one outcome taken from active, inactive

Assay outcome for "CC(=O)O[C@H]1CC[C@H]2[C@@H]3CC[C@H]4CC(=O)C=C(C)[C@]4(C)[C@H]3CC[C@]12C" : what was it?
active

Assay outcome for "Cc1ccccc1C1=CCN(C)CC1" : what was it?
inactive

Assay outcome for CC1=CC2(O)/C=C/C(C)(O)C(O)C(O)/C=C/C(=O)OC23C(=O)NC(CC(C)C)C3C1C (stereo not drawn) : what was it?
inactive

Assay outcome for "CC[C@@H]1C[C@H]2CC[C@H](O2)[C@H](C)C(=O)O[C@@H](C)C[C@@H]2CC[C@@H](O2)[C@@H](C)C(=O)O[C@H](C)C[C@H]2CC[C@H](O2)[C@H](C)C(=O)O[C@@H](C)C[C@@H]2CC[C@@H](O2)[C@@H](C)C(=O)O1" : what was it?
active

Assay outcome for "CC(C)(C)c1ccc(O)cc1" : what was it?
inactive

Assay outcome for "CC(C)[C@@H](CN1CC[C@@](C)(c2cccc(O)c2)[C@@H](C)C1)NC(=O)[C@H]1Cc2ccc(O)cc2CN1" : what was it?
active

Assay outcome for "Cc1ncc(CNC(=O)N(CCCl)N=O)c(N)n1" : what was it?
inactive

Assay outcome for "CC[C@@H](C)[C@H]1C(=O)O[C@H](C(C)C)C(=O)N(C)[C@@H](C(C)C)C(=O)O[C@H](C(C)C)C(=O)N(C)[C@@H](C(C)C)C(=O)O[C@H](C(C)C)C(=O)N1C" : what was it?
active

* * *

Experiment: Cellular viability qHTS for adrenocortical cancer (ACC) cell line NCI-H295R (AID 1963990); further: nearly all actives have a fitted effect of over 60% in size; further: potency means the concentration at half of the fitted maximal effect
Details: CellTiter-Glo ATP luminescence, 48 h; series mostly up to 46.1 µM
Results filed as inconclusive are left out. Active and inactive are the calls of the source. Calls come from the whole dose curve; as a rule, active = well fitted cell-killing curve with a large enough effect; inconclusive = small, poorly fitted or top-dose-only effect; inactive = flat fitted curve, though single readings scatter.
Measure name: Potency

Field: example entries. Status: answers known.
Compound: COc1ccc(Cc2nccc3cc(OC)c(OC)cc23)cc1OC
Potency: inactive

Compound: C[CH2][Hg][S]c1ccccc1C(=O)O
Potency: 1.64 µM (active)

Compound: COP(=S)(OC)Oc1ccc(Sc2ccc(OP(=S)(OC)OC)cc2)cc1
Potency: inactive

Compound: Nc1ccccc1
Potency: inactive

Compound: O=C(Nc1ccc(Br)cc1)c1cc(Br)cc(Br)c1O
Potency: 10.3 µM (active)

// Input: "Cc1ccc(Cl)c(O)c1" . Output its Potency only.
inactive

// Input: CC(C)(C)NCC(O)c1cc(Cl)c(N)c(Cl)c1 (stereo unspecified) . Output its Potency only.
inactive

// Input: "C/C=C(\C)C(=O)N[C@@H](c1ccccc1)[C@@H](O)C(=O)O[C@H]1C[C@@]2(O)[C@@H](OC(=O)c3ccccc3)[C@@H]3[C@]4(OC(C)=O)CO[C@@H]4C[C@H](O)[C@@]3(C)C(=O)[C@H](OC(C)=O)C(=C1C)C2(C)C" . Output its Potency only.
0.891 µM (active)

// Input: "NCc1cccnc1" . Output its Potency only.
inactive

// Input: c1ccc2c(c1)OCC(C1=NCCN1)O2 (stereo unspecified) . Output its Potency only.
13 µM (active)

// Input: "COP(=S)(OC)Oc1ccc(SC)c(C)c1" . Output its Potency only.
inactive
